The origin of these recorded values is the supplement of paper PMC10567573.

B1: ZNF649 (parent)
chain: LVAHQRYHTGKTPFVCPECGQPCS

# Variants of: B1
# TEST_METHOD_NOTES: protein stability index of a GFP-peptide fusion (GPS, HEK-293T) (PSI 1-6); higher = more stable;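 further: lentivirally expressed fusions sorted by FACS into six bins by GFP to DsRed ratio, PSI derived from sequencing read proportions per bin multiplied by bin number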
# STATED_CONDITIONS: c terminus: a fixed tail appended
Recorded protein stability index by entry

| SEQUENCE_VARIANT | protein stability index |
| --- | --- |
| G20P | 3.12 |
| Q5Y | 2.74 |
| Q21H | 3.09 |
| T9L | 2.92 |
| C19F | 2.06 |
| L1P | 4.28 |
| E18A | 2.99 |
| T12D | 3.06 |
| E18G | 1.8 |
| Q21S | 2.86 |
| S24W | 3.08 |
| G20Q | 3.14 |
| Q5W | 1.16 |
| H8M | 2.75 |
| C16H | 2.64 |
| F14G | 4.1 |
| V2M | 3.34 |
| P22H | 3.41 |
| C19H | 2.92 |
| Q21M | 2.44 |
| C16I | 2.14 |
| F14A | 3.94 |
